The origin of these recorded values is patent US12071436B2.

Procedure details: Plasma pharmacokinetics in female BALB/c mice (ip and po)
Format: in vivo, mouse
Condition details: female, BALB/c, mouse; ip, 50 mg/kg, plasma, mice; read-out: PK (ip, 50 mg/kg) t1/2 (converted)
Items are presented alongside their recorded half-life.
A bare number is not enough; add the unit after it.

CN(C)CC#Cc1cccc(-c2nc(C(=O)NCc3ccc4c(c3)OCO4)cc3c2[C@@H](CCO)N([S@+]([O-])C(C)(C)C)C3)c1 :: 2.8 h

Pending compound:
Entry `CN(C)CC#Cc1cccc(-c2nc(C(=O)N[C@@H]3CCN(Cc4ccccc4)C3)cc3c2[C@@H](CCO)N([S@+]([O-])C(C)(C)C)C3)c1` , half-life reported as 6.3 h

----------
Items are presented alongside their recorded IC50.
Test system: HepG2
Procedure details: Cytotoxicity screening in HepG2 (CellTiter Glo, fluorescence microscopy)
Assay type: cell-based
Condition details: Homo sapiens, 48 hours, read-out: HepG2 IC50, Cell Count
Write the answer as a number in µM, unit excluded.

CN(C)CC#Cc1cccc(-c2nc(C(=O)N[C@@H]3CCN(Cc4ccccc4)C3)cc3c2[C@@H](CCO)N([S@+]([O-])C(C)(C)C)C3)c1 [compound 37] :: 56.2

Pending molecule:
// returns IC50 for CN(C)CC#Cc1cccc(-c2nc(C(=O)NCc3ccc4c(c3)OCO4)cc3c2[C@@H](CCO)N([S@+]([O-])C(C)(C)C)C3)c1 [compound 21] with HepG2; value = 51.3

----------
Procedure details: Plasma pharmacokinetics and liver distribution study in female BALB/c mice
Format: in vivo, mouse
Condition details: female, BALB/c, mouse; ip, Dose: 50 mg/kg, plasma; read-out: PK (ip, plasma/liver) Cmax, plasma
Method: A plasma pharmacokinetics and liver distribution study of selected compounds, including Pyrrolopyridine-008 (2015-foleyc-216), Pyrrolopyridine-D20-ent (2015-foleyc-217), and Pyrrolopyridine-M03 (2015-foleyc-218), in female BALB/c mice was conducted following a single intraperitoneal and oral administration. […] All samples were processed for analysis by protein precipitation using acetonitrile and analyzed with fit-for-purpose LC-MS/MS method (LLOQ: 2.01 ng/mL for plasma and 50.30 ng/g for liver). […]
Metric: Cmax (µM)
Write the answer as a number in µM, unit excluded.

Entry CC(C)NC(=O)N1Cc2cc(C(=O)NCC(F)(F)F)nc(-c3cccc(-c4cc5ccccc5o4)c3)c2[C@H]1CCO [drawing 328] , Cmax reported as 14

----------
Procedure details: Plasma pharmacokinetics and liver distribution study in female BALB/c mice
Type: in vivo, mouse
Condition details: female, BALB/c, mouse; po, Dose: 100 mg/kg, plasma; read-out: PK (po, plasma/liver) Cmax, plasma
Procedure: A plasma pharmacokinetics and liver distribution study of selected compounds, including Pyrrolopyridine-008 (2015-foleyc-216), Pyrrolopyridine-D20-ent (2015-foleyc-217), and Pyrrolopyridine-M03 (2015-foleyc-218), in female BALB/c mice was conducted following a single intraperitoneal and oral administration. […] All samples were processed for analysis by protein precipitation using acetonitrile and analyzed with fit-for-purpose LC-MS/MS method (LLOQ: 2.01 ng/mL for plasma and 50.30 ng/g for liver). […]
Items are presented alongside their recorded Cmax.

Entry CC(C)(C)[S@@+]([O-])N1Cc2cc(C(=O)NCc3ccc4c(c3)OCO4)nc(-c3cccc(-c4cccnc4)c3)c2[C@H]1CCO [drawing 329] , Cmax reported as 27.6 µM

Entry CC(C)(C)[S@@+]([O-])N1Cc2cc(C(=O)NCc3ccccc3F)nc(-c3cccc(-c4cccnc4)c3)c2[C@H]1CCO [drawing 330] , Cmax reported as 56.4 µM
